Just for reference, PubChem BioAssay AID485364 is where these values come from.

Target: Schistosoma mansoni thioredoxin glutathione reductase (TGR) (UniProt Q962Y6)
Assay: qHTS Assay for the Inhibitors of Schistosoma Mansoni Peroxiredoxins; also: nearly all actives have a fitted effect of over 60% in size; also: potency is read from the fitted curve at half-maximal effect
Conditions: purified TGR, DTNB reduction, TNB absorbance 405 nm; series mostly up to 114 µM
Hit rate of the full screen: of about 360,000 compounds, about 11,000 (3.1%) were called active. Not shown: some 4% with an inconclusive outcome. Many of the other results were omitted from the sample, so actives are more common in it than they were.
result_type: Potency

- molecule: "CC(=O)c1ccc(NC(=O)CSc2c(C(C)C)cnc3c2c(=O)n(C)c(=O)n3C)cc1"
  Potency: "inactive"
- molecule: "COC(=O)c1ccc(NC(=O)C(C)N2C(=O)c3ccccc3C2=O)cc1 (stereo not given)"
  Potency: "inactive"
- molecule: "COC(=O)C1=C(C)N(C(C)c2ccccc2)C(=O)/C1=C\\c1ccco1 (stereo not given)"
  Potency: "31.6 µM (active)"
- molecule: "Cc1cc(=O)n(CC(=O)Nc2cccc([N+](=O)[O-])c2)c(-n2nc(C)cc2C)n1"
  Potency: "inactive"

Please find the next molecule below.
Tell me Potency reported for COc1ccc(CN2C(=O)C(C)S/C2=N/N=C/c2ccco2)cc1 (stereo not given)
inactive
